Attribute: relative viability
Tested on: NCI-H23
Assay: relative viability (nuclei count vs DMSO), 5 days (fraction); higher = more cells survive
Details: first compound 0.5 µM
Give the value as a plain number.

COc1cc2nccc(Oc3ccc(NC(=O)Nc4cc(C)on4)c(Cl)c3)c2cc1OC [Tivozanib] + COc1cc2c(Oc3ccc(NC(=O)C4(C(=O)Nc5ccc(F)cc5)CC4)cc3F)ccnc2cc1OCCCN1CCOCC1 [Foretinib] (partner 0.25 µM) : 1.1
Nc1ccn([C@@H]2O[C@H](CO)[C@@H](O)[C@@H]2O)c(=O)n1 [Cytarabine] + O=C(c1cc(Cc2n[nH]c(=O)c3ccccc23)ccc1F)N1CCN(C(=O)C2CC2)CC1 [Olaparib] (partner 8 µM) : 0.148

Request: Fill in the recorded relative viability for this compound, with NCI-H23 as test system: Nc1ccn([C@@H]2O[C@H](CO)[C@@H](O)[C@@H]2O)c(=O)n1 [Cytarabine] + COc1cc2c(Oc3ccc(NC(=O)C4(C(=O)Nc5ccc(F)cc5)CC4)cc3F)ccnc2cc1OCCCN1CCOCC1 [Foretinib] (partner 0.25 µM)
Response: 0.256

====

System: ABC-1
Assay: relative viability (nuclei count vs DMSO), 5 days (fraction); higher = more cells survive
Conditions: first compound 0.01581 µM
Entries whose relative viability is below 0.7 take yes (1); entries at or above 0.7 take no (0).

Nc1ccn([C@@H]2O[C@H](CO)[C@@H](O)[C@@H]2O)c(=O)n1 [Cytarabine] + COc1cc2c(Oc3ccc(NC(=O)C4(C(=O)Nc5ccc(F)cc5)CC4)cc3F)ccnc2cc1OCCCN1CCOCC1 [Foretinib] (partner 0.25 µM) : no (0)
COc1cc2nccc(Oc3ccc(NC(=O)Nc4cc(C)on4)c(Cl)c3)c2cc1OC [Tivozanib] + C[C@@H](Oc1cc(-c2cnn(C3CCNCC3)c2)cnc1N)c1c(Cl)ccc(F)c1Cl [Crizotinib] (partner 1 µM) : no (0)
Nc1ccn([C@@H]2O[C@H](CO)[C@@H](O)[C@@H]2O)c(=O)n1 [Cytarabine] + CC(C)C[C@H](NC(=O)[C@H](Cc1ccccc1)NC(=O)c1cnccn1)B(O)O [Bortezomib] (partner 0.002 µM) : yes (1)

Please examine the following record next.
Request: Determine if COc1cc2nccc(Oc3ccc(NC(=O)Nc4cc(C)on4)c(Cl)c3)c2cc1OC [Tivozanib] + C[C@]1(O)C[C@@H](c2nc(-c3ccc4ccc(-c5ccccc5)nc4c3)c3c(N)nccn32)C1 [Linsitinib] (partner 1 µM) shows relative viability strictly lower than 0.7.
Response: no (0)

====

Attribute: relative viability
Tested on: 201T
Assay: relative viability (nuclei count vs DMSO), 5 days (fraction); higher = more cells survive
Details: first compound 0.8 µM

O=c1[nH]c2ccccc2n1C1CCN(CCCC(c2ccc(F)cc2)c2ccc(F)cc2)CC1 [Pimozide] + NC(=O)Nc1cc(-c2cccc(F)c2)sc1C(=O)N[C@H]1CCCNC1 [AZD7762] (partner 0.2 µM) : 0.541
O=c1[nH]c2ccccc2n1C1CCN(CCCC(c2ccc(F)cc2)c2ccc(F)cc2)CC1 [Pimozide] + Nc1ncn([C@H]2C[C@H](O)[C@@H](CO)O2)c(=O)n1 [Decitabine] (partner 2 µM) : 0.829

Request: What value of measured relative viability is listed for Cc1cnc(-c2cnc(NCCNc3ccc(C#N)cn3)nc2-c2ccc(Cl)cc2Cl)[nH]1 + Cc1nc(NC(=O)N2CCC[C@H]2C(N)=O)sc1-c1ccnc(C(C)(C)C(F)(F)F)c1 [Alpelisib] (partner 2 µM) ?
Response: 1.01

Request: What value of measured relative viability is listed for O=c1[nH]c2ccccc2n1C1CCN(CCCC(c2ccc(F)cc2)c2ccc(F)cc2)CC1 [Pimozide] + CS(=O)(=O)N1CCN(Cc2cc3nc(-c4cccc5[nH]ncc45)nc(N4CCOCC4)c3s2)CC1 [Pictilisib] (partner 1 µM) ?
Response: 0.6

Request: What value of measured relative viability is listed for O=c1[nH]c2ccccc2n1C1CCN(CCCC(c2ccc(F)cc2)c2ccc(F)cc2)CC1 [Pimozide] + COc1cccc2cc(-c3nc([C@H]4CC[C@H](C(=O)O)CC4)n4ncnc(N)c34)[nH]c12 [OSI-027] (partner 0.5 µM) ?
Response: 0.711

====

Attribute: relative viability
Tested on: A-427
Assay: relative viability (nuclei count vs DMSO), 5 days (fraction); higher = more cells survive
Settings: first compound 0.253 µM
Give the value as a plain number.

The examples below pair each entry with its known result.
Cc1cnc(-c2cnc(NCCNc3ccc(C#N)cn3)nc2-c2ccc(Cl)cc2Cl)[nH]1 + CS(=O)(=O)N1CCN(Cc2cc3nc(-c4cccc5[nH]ncc45)nc(N4CCOCC4)c3s2)CC1 [Pictilisib] (partner 1 µM) : 0.705
O=c1[nH]c2ccccc2n1C1CCN(CCCC(c2ccc(F)cc2)c2ccc(F)cc2)CC1 [Pimozide] + CC1(C)CCC(c2ccc(Cl)cc2)=C(CN2CCN(c3ccc(C(=O)NS(=O)(=O)c4ccc(N[C@H](CCN5CCOCC5)CSc5ccccc5)c(S(=O)(=O)C(F)(F)F)c4)cc3)CC2)C1 [Navitoclax] (partner 0.5 µM) : 1.01

Request: Fill in the recorded relative viability for this molecule, with A-427 as test system: O=c1[nH]c2ccccc2n1C1CCN(CCCC(c2ccc(F)cc2)c2ccc(F)cc2)CC1 [Pimozide] + O=C(c1cc(Cc2n[nH]c(=O)c3ccccc23)ccc1F)N1CCN(C(=O)C2CC2)CC1 [Olaparib] (partner 8 µM)
Response: 0.681

====

Test system: HCC-827
Test: relative viability (nuclei count vs DMSO), 5 days (fraction); higher = more cells survive
Conditions: first compound 5 µM
Entries whose relative viability is below 0.7 take class 1; entries at or above 0.7 take class 0.

O=C(O)CCCCC(CCSCc1ccccc1)SCc1ccccc1 (stereo not given) [CPI-613] + N=C(N)NC(=N)NCCc1ccccc1 [Phenformin] (partner 250 µM) : class 1

Please examine the following record next.
Request: Determine if O=C(O)CCCCC(CCSCc1ccccc1)SCc1ccccc1 (stereo not given) [CPI-613] + COc1cc2c(Oc3ccc(NC(=O)C4(C(=O)Nc5ccc(F)cc5)CC4)cc3F)ccnc2cc1OCCCN1CCOCC1 [Foretinib] (partner 0.25 µM) shows relative viability strictly lower than 0.7.
Response: class 0

====

Attribute: relative viability
Tested on: NCI-H460
Assay: relative viability (nuclei count vs DMSO), 5 days (fraction); higher = more cells survive
Conditions: first compound 0.08 µM
Give the value as a plain number.

The examples below pair each entry with its known result.
Cc1cnc(-c2cnc(NCCNc3ccc(C#N)cn3)nc2-c2ccc(Cl)cc2Cl)[nH]1 + Nc1ncn([C@H]2C[C@H](O)[C@@H](CO)O2)c(=O)n1 [Decitabine] (partner 2 µM) : 0.537
Cc1cnc(-c2cnc(NCCNc3ccc(C#N)cn3)nc2-c2ccc(Cl)cc2Cl)[nH]1 + Cc1nc(NC(=O)N2CCC[C@H]2C(N)=O)sc1-c1ccnc(C(C)(C)C(F)(F)F)c1 [Alpelisib] (partner 2 µM) : 0.552

From here, focus on the item given below.
Request: Fill in the recorded relative viability for this molecule, with NCI-H460 as test system: Cc1cnc(-c2cnc(NCCNc3ccc(C#N)cn3)nc2-c2ccc(Cl)cc2Cl)[nH]1 + CC(=O)c1c(C)c2cnc(Nc3ccc(N4CCNCC4)cn3)nc2n(C2CCCC2)c1=O [Palbociclib] (partner 0.5 µM)
Response: 0.154

====

Test system: NCI-H1793
Experiment: relative viability (nuclei count vs DMSO), 5 days (fraction); higher = more cells survive
Conditions: first compound 5 µM
measured-metric: relative viability
Give the value as a plain number.

O=C(O)CCCCC(CCSCc1ccccc1)SCc1ccccc1 (stereo not drawn) [CPI-613] + Cc1nc(Nc2ncc(C(=O)Nc3c(C)cccc3Cl)s2)cc(N2CCN(CCO)CC2)n1 [Dasatinib] (partner 0.075 µM) : 0.327
O=C(O)CCCCC(CCSCc1ccccc1)SCc1ccccc1 (stereo not drawn) [CPI-613] + CS(=O)(=O)CCNCc1ccc(-c2ccc3ncnc(Nc4ccc(OCc5cccc(F)c5)c(Cl)c4)c3c2)o1 [Lapatinib] (partner 2 µM) : 0.683

From here, focus on the item given below.
Request: What value of measured relative viability is listed for O=C(O)CCCCC(CCSCc1ccccc1)SCc1ccccc1 (stereo not drawn) [CPI-613] + CC1(C)CCC(c2ccc(Cl)cc2)=C(CN2CCN(c3ccc(C(=O)NS(=O)(=O)c4ccc(N[C@H](CCN5CCOCC5)CSc5ccccc5)c(S(=O)(=O)C(F)(F)F)c4)cc3)CC2)C1 [Navitoclax] (partner 0.5 µM) ?
Response: 0.393

====

Test system: NCI-H2126
Test: relative viability (nuclei count vs DMSO), 5 days (fraction); higher = more cells survive
Conditions: first compound 0.08 µM
Attribute: relative viability
Give the value as a plain number.

O=c1[nH]c2ccccc2n1C1CCN(CCCC(c2ccc(F)cc2)c2ccc(F)cc2)CC1 [Pimozide] + Cc1nc(Nc2ncc(C(=O)Nc3c(C)cccc3Cl)s2)cc(N2CCN(CCO)CC2)n1 [Dasatinib] (partner 0.075 µM) : 0.687
Cc1cnc(-c2cnc(NCCNc3ccc(C#N)cn3)nc2-c2ccc(Cl)cc2Cl)[nH]1 + Cc1nc(NC(=O)N2CCC[C@H]2C(N)=O)sc1-c1ccnc(C(C)(C)C(F)(F)F)c1 [Alpelisib] (partner 2 µM) : 0.725
O=c1[nH]c2ccccc2n1C1CCN(CCCC(c2ccc(F)cc2)c2ccc(F)cc2)CC1 [Pimozide] + CCNC(=O)c1noc(-c2cc(C(C)C)c(O)cc2O)c1-c1ccc(CN2CCOCC2)cc1 [Luminespib] (partner 0.01 µM) : 0.901
Cc1cnc(-c2cnc(NCCNc3ccc(C#N)cn3)nc2-c2ccc(Cl)cc2Cl)[nH]1 + Nc1nc2[nH]cc(CCc3ccc(C(=O)N[C@@H](CCC(=O)O)C(=O)O)cc3)c2c(=O)[nH]1 [Pemetrexed] (partner 0.2 µM) : 0.706
O=c1[nH]c2ccccc2n1C1CCN(CCCC(c2ccc(F)cc2)c2ccc(F)cc2)CC1 [Pimozide] + O=C(c1cc(Cc2n[nH]c(=O)c3ccccc23)ccc1F)N1CCN(C(=O)C2CC2)CC1 [Olaparib] (partner 8 µM) : 0.922
Cc1cnc(-c2cnc(NCCNc3ccc(C#N)cn3)nc2-c2ccc(Cl)cc2Cl)[nH]1 + COc1cc2c(Oc3ccc(NC(=O)C4(C(=O)Nc5ccc(F)cc5)CC4)cc3F)ccnc2cc1OCCCN1CCOCC1 [Foretinib] (partner 0.25 µM) : 1.33
O=c1[nH]c2ccccc2n1C1CCN(CCCC(c2ccc(F)cc2)c2ccc(F)cc2)CC1 [Pimozide] + COc1cccc2cc(-c3nc([C@H]4CC[C@H](C(=O)O)CC4)n4ncnc(N)c34)[nH]c12 [OSI-027] (partner 0.5 µM) : 0.711

From here, focus on the item given below.
Request: Fill in the recorded relative viability for this molecule, with NCI-H2126 as test system: O=c1[nH]c2ccccc2n1C1CCN(CCCC(c2ccc(F)cc2)c2ccc(F)cc2)CC1 [Pimozide] + C[C@]1(O)C[C@@H](c2nc(-c3ccc4ccc(-c5ccccc5)nc4c3)c3c(N)nccn32)C1 [Linsitinib] (partner 1 µM)
Response: 0.747
